Data origin, for the record: a melting point compilation (Tetko et al.; mined from patent text by program, amines drawn as free bases though some values may be those of a salt)

Observable: melting point

Consider the following illustrative entries.
                                   compound  measured_result
0  O=C(c1ccccc1)c1cc(Cl)ccc1-n1cnnc1CN1C(=O)c2ccccc2C1=O    229 to 230 °C
1  CC(Cl)(Cl)C(NC(=O)c1cccc(Cl)c1)Nc1c(Nc2cccnc2)c(=O)c1=O (stereo not drawn)    202 to 204 °C

API: the following record is the query input.
// lookup melting point for CC(=O)SCC(Cc1ccccc1)C(=O)NC(C)(C)C(=O)OCc1ccccc1 (stereo not drawn)
83 to 85 °C

* * *

Catalogue of melting point readings, one per entry.

                                   compound  measured_result
0  COCCN(c1cccc2cc(C(=O)O)[nH]c12)S(=O)(=O)c1cccs1    216 to 217 °C
1       OCc1ccc(O)c(CO)c1CNCCCCCCOCC1CCCCC1      72 to 74 °C
2  C[C@]1(COc2ccc(N3CCC(Nc4ccc(Cl)c(Cl)c4)CC3)cc2)Cn2cc([N+](=O)[O-])nc2O1    146 to 147 °C

// lookup melting point for "COC(=O)c1cnc2c3cc(NC(=O)CC(C)(C)C)ccc3ncn2c1=O"
247 to 249 °C

// lookup melting point for Cc1cc(Cl)cc(C(=O)NC(C)C2CC2)c1NC(=O)c1cc(Br)nn1-c1ccccc1Cl (stereo not given)
180 to 181 °C

// lookup melting point for "CON1C(C)(C)CC(=O)CC1(C)C"
35 to 38 °C

// lookup melting point for Cc1ccc(C=CC(=O)N2CCc3c([nH]c4ccccc34)C2c2ccc3c(c2)OCO3)cc1 (stereo not given)
240 °C

// lookup melting point for "CC(=O)NC[C@H]1CN(c2ccc(C(=O)c3ccc4cnc(C)cn34)cc2)C(=O)O1"
248 to 250 °C

// lookup melting point for "Cc1[nH]c2ccc(Br)cc2c1Cc1cccnc1"
188 to 190 °C

// lookup melting point for "COc1ccc(-c2cc3cc(F)c(F)cc3[nH]2)cc1NC(=S)Nc1ccc(C(=O)O)cc1"
201 to 203 °C

* * *

Catalogue of melting point readings, one per entry.

Consider the following illustrative entries.
>>> print(df.to_string())
                                   compound     observable  measured_result
0  CN(CC1(c2ccccc2)CC(O)=CC(=O)O1)c1ccccc1 (stereo not drawn)  melting point    118 to 120 °C
1  COc1cc(C2CCC(c3cc(OC)c(OC)c(OC)c3)O2)cc(OC)c1OC (stereo not drawn)  melting point    128 to 130 °C
2  C=CCOP1(=S)OCc2cc(C)cnc2O1 (stereo not drawn)  melting point      79 to 80 °C
3    Cn1c(C(=O)O)c(Oc2ccc(Cl)cc2N)c2ccccc21  melting point    204 to 206 °C
4        CC1(C)COC(C(C)(C)Oc2ccc(Cl)cc2)=N1  melting point      59 to 61 °C
5  NS(=O)(=O)c1ccc(-c2cnn(-c3ccc(F)c(Cl)c3)c(=O)c2-c2ccc(F)cc2)cc1  melting point    208 to 210 °C
6     CS(=O)(=O)N(Cc1cccnc1)Cc1ccc(Cl)cc1Cl  melting point      78 to 80 °C

API: the following record is the query input.
// lookup melting point for "N#Cc1cccc(C2=Nc3ccc(-c4cccc(F)c4)cc3NC(=O)C2)c1"
232 to 235 °C

* * *

Observable: melting point

Consider the following illustrative entries.
>>> df
                                   compound     observable  measured_result
0   COc1cccc(C(=O)Nc2c[nH]nc2C(=O)NCCC#N)c1  melting point    118 to 121 °C
1  CC(=O)OCC1OC(OC2C(COC(C)=O)OC(Sc3ccc(N)cc3)C(OC(C)=O)C2OC(C)=O)C(OC(C)=O)C(OC(C)=O)C1OC(C)=O (configuration not stated)  melting point    145 to 148 °C
2  CCN(CC)OC(=O)c1cc(C(C)(C)C)c(O)c(C(C)(C)C)c1  melting point    129 to 137 °C
3  COc1cc(-c2nc3ccccc3n2Cc2ccccc2Br)cc(OC)c1OC  melting point           152 °C
4  Cc1onc(-c2ccccc2)c1COc1ccc(-c2cc(O)c(SCCc3ccccc3)c(=O)o2)cc1  melting point    126 to 128 °C
5  CCc1[nH]n(C2CCCC2)c2nc(-c3ccccc3OC)nc(=O)c1-2  melting point    135 to 136 °C
6  O=C1NCC(CCl)C1(c1ccccc1)c1ccccc1 (configuration not stated)  melting point    218 to 219 °C
7                   N#Cc1ccc(C(=O)N=C=S)cc1  melting point  87.5 to 88.5 °C

// lookup melting point for CC(=O)ON1C(C)(C)CC(C(N)=O)C1(C)C (configuration not stated)
150 to 151 °C

// lookup melting point for "COc1ccc2[nH]c(SCc3cc(N4CCOCC4)c(F)cn3)nc2c1"
142 to 144 °C

// lookup melting point for "CCCCc1cn(Cc2ccc(-c3ccccc3C(=O)O)cc2)c2c(Br)cccc2c1=O"
180 °C

// lookup melting point for "CCCNC(=O)Nc1ccc(N(C)C)cc1C(=O)NCC1CCN(C(c2ccccc2)c2ccccc2)CC1"
199 to 201 °C

* * *

Catalogue of melting point readings, one per entry.

Consider the following illustrative entries.
In [3]: df
Out[3]:
                                   compound  measured_result
0  CC1CCCCC1OC(=O)c1cc(NC(=O)c2ccccc2)ccc1Cl (stereo unspecified)    121 to 122 °C
1  O=C1c2cccc(NCCc3ccc(O)cc3)c2C(=O)c2c(NCCc3ccc(O)cc3)cccc21    181 to 182 °C
2                    CC(=O)SCCC(=O)CCC(=O)O      72 to 74 °C
3  CCc1cccc(-n2cnc(-c3cnc4[nH]cc(C(=O)N[C@@H](C)C(C)(C)C)c4n3)c2)c1    284 to 287 °C
4  CSc1nnc(C(O)(c2ccc(Cl)cc2)c2ccc3nc(C)cc(-c4cccc(Cl)c4)c3c2)n1C (stereo unspecified)           142 °C
5  COc1ccccc1-c1c(C#N)nn(-c2c(Cl)cc(C(F)(F)F)cc2Cl)c1N           193 °C

// lookup melting point for CCOC(=O)c1c(C)c(C(=O)c2ccc(SC)n2C)n2c1C(C(=O)OCC)CC2 (stereo unspecified)
142 to 143 °C

// lookup melting point for "COCOc1nn(-c2ccccc2)cc1/C=C/c1csc(-c2ccccc2C(=O)OC)n1"
134 to 135 °C

// lookup melting point for O=S1OCCN1c1cc(-c2ccnc(Nc3cccc(Cl)c3)n2)ccn1 (stereo unspecified)
202 to 203 °C

// lookup melting point for O=C(c1ccccc1)N1CC(OCc2ccccc2)C(OCc2ccccc2)C(OCc2ccccc2)C1CO (stereo unspecified)
104 to 106 °C

// lookup melting point for "OCc1sc2cc(Br)ccc2c1Cl"
117 to 118 °C

* * *

Observable: melting point (°C)
Could you give me the number in °C? Just the number is fine.

                                   compound     observable  measured_result
0  NC(=O)c1ccc(N2CCN(CCC3=CCCc4ccccc43)CC2)cc1  melting point              216

API: the following record is the query input.
// lookup melting point for N#CC1=C(c2cccs2)Nc2n[nH]cc2C1c1ccccc1[N+](=O)[O-] (centres undefined)
165

* * *

Catalogue of melting point readings, one per entry.

>>> df
                                   molecule  measured_result
0  CC=CCN(C)c1ncnc2c1ncn2C1OC(CO)C(O)C1O (centres undefined)    160 to 162 °C
1  CC#CCOc1ccc(S(=O)(=O)N(C)C(C(=O)NO)C(C)(C)SCCN2CCCC2)cc1 (centres undefined)      55 to 57 °C
2       CON=C(C)C(C)=NOc1ncccc1N(OC)C(=O)OC      86 to 88 °C

// lookup melting point for CCC(C(=O)C(C)C(O)C(C)CCc1c(Cl)cc(C)c(O)c1C(=O)O)C1OC(CC)(C2CCC(O)(CC)C(C)O2)CC1C (centres undefined)
183 to 185 °C

// lookup melting point for "CCCn1c(COCC)nc2c(N)nc3cc(OC4CCN(S(C)(=O)=O)CC4)ccc3c21"
215 to 217 °C

// lookup melting point for "C=CCSc1cc(C(=O)O)cc(S(N)(=O)=O)c1-c1ccccc1"
78 to 81 °C

// lookup melting point for "O=c1oc(-c2cc(C(F)(F)F)cc(C(F)(F)F)c2)cc(O)c1SCc1ccccc1"
80 to 82 °C

// lookup melting point for "CN(c1cccc2cc(-c3nccs3)[nH]c12)S(=O)(=O)c1ccsc1CCl"
190 °C

// lookup melting point for "O=C(Nc1ccc2ccc(Oc3ccc(Cl)cc3)nc2n1)c1ccccc1"
148 °C

// lookup melting point for "Cc1ccc(SCC(=O)O)o1"
35 to 36 °C
